- EXPERIMENTAL_SYSTEM: Runt-related transcription factor 1 (Homo sapiens) + Core-binding factor subunit beta (Homo sapiens) (UniProt Q01196+Q13951)
- Sequence (Q01196 whole entry, looked up, the tested form may be a part): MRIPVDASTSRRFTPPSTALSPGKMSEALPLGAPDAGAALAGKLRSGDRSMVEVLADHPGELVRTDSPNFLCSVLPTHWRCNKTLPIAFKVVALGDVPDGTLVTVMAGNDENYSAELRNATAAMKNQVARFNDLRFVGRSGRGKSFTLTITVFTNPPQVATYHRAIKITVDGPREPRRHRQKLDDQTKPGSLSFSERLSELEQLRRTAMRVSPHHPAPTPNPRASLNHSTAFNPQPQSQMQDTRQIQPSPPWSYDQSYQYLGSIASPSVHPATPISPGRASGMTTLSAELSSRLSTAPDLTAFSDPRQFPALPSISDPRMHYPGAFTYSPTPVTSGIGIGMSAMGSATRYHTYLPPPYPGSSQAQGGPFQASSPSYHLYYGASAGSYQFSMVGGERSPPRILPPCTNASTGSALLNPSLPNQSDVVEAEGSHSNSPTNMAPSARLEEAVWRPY
- Sequence (Q13951 whole entry, looked up, the tested form may be a part): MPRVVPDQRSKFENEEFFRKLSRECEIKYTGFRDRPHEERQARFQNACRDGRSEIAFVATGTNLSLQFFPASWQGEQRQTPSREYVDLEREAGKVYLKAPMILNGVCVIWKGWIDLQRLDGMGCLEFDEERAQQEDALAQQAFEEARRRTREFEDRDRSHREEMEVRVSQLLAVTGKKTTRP
- ASSAY_SUMMARY: disruptors of Runt domain/CBFb-SMMHC interaction – biochemical, FRET, Cerulean-Runt, Venus-CBFb-SMMHC, uHTS, primary screen (AID 1434);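 further: 0% = DMSO wells and 100% = wells with excess untagged CBFb-SMMHC; inhibitors lower the FRET ratio by blocking Runt binding to CBFb-SMMHC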
- ASSAY_SETUP: Cerulean-Runt/Venus-CBFb-SMMHC FRET ratio 530/480, 1 h; at 20 µM; hits give high values
Screen size: about 220,000 compounds; about 1,600 (0.73%) were called active. Many of the other results were omitted from the sample, so actives are more common in it than they were.
In this section, each of the molecules is paired with its reported inhibition.
Numbers only; they are read as %.

In the examples that follow, each entry is paired with its recorded inhibition.
MOLECULE	inhibition (%)
CC(C)N1C(=S)SC(C)(C)C1n1oc(=O)n(-c2ccc(Cl)c(Cl)c2)c1=O (stereo not drawn)	4.2
O=C1OC(/C=C/c2ccccc2)=NC/1=C/c1ccco1	-22.3
O=C(CCc1ccccc1)Nc1ccc(NC(=O)C2CCCCC2)nc1	-1
O=C(CN1CCc2ccccc21)NC(c1ccccc1)c1ccccc1	-0.8
Cc1cc(C)nc(SCc2cn3c(C)cc(C)nc3n2)n1	-4

### Prompt Value lookup for inhibition; key = CC(C)c1cc(NCc2ccccn2)n2c(nc3ccccc32)c1C#N
### Response 29.3

### Prompt Value lookup for inhibition; key = CC(C)C1Nc2c(C(=O)O)cccc2C(Nc2ccccc2C(=O)O)C1(C)C (stereo not drawn)
### Response -10

### Prompt Value lookup for inhibition; key = COc1ccc(-c2cc3ccc(OCc4nn[nH]n4)cc3oc2=O)cc1
### Response 16.9

### Prompt Value lookup for inhibition; key = Cc1c(CCOC(=O)c2cc([N+](=O)[O-])ccc2Cl)sc[n+]1CCCCS(=O)(=O)[O-]
### Response -0.3

### Prompt Value lookup for inhibition; key = CSc1nc(N)c(C#N)c(-c2ccccc2Cl)c1C#N
### Response 2

### Prompt Value lookup for inhibition; key = CNc1[nH]ncc1[N+](=O)[O-]
### Response 7.1

### Prompt Value lookup for inhibition; key = CCc1cccc2c(=O)c(C(=O)NCCCOC)c[nH]c12
### Response 1

### Prompt Value lookup for inhibition; key = CCn1c(=N)c(C(=O)NCCCOC)cc2c(=O)n3cccc(C)c3nc21
### Response 58.1

### Prompt Value lookup for inhibition; key = O=c1c2ccccc2c(-c2ccccc2)nn1Cc1ccccc1
### Response 1.4

### Prompt Value lookup for inhibition; key = COc1ccc(CCNC(=O)CCn2c(=O)c3ccccc3n(CC(=O)NCC3CCCO3)c2=O)cc1OC (stereo not drawn)
### Response -0.3

* * *

In this section, each of the compounds is paired with its reported inhibition.
- EXPERIMENTAL_SYSTEM: Runt-related transcription factor 1 (Homo sapiens) + Core-binding factor subunit beta (Homo sapiens) (UniProt Q01196+Q13951)
- ASSAY_SUMMARY: disruptors of Runt domain/CBFb-SMMHC interaction – biochemical, FRET, Cerulean-Runt, Venus-CBFb-SMMHC, uHTS, primary screen (AID 1434);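 further: 0% = DMSO wells and 100% = wells with excess untagged CBFb-SMMHC; inhibitors lower the FRET ratio by blocking Runt binding to CBFb-SMMHC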
- ASSAY_SETUP: Cerulean-Runt/Venus-CBFb-SMMHC FRET ratio 530/480, 1 h; at 20 µM; hits give high values
The campaign covered roughly 220,000 compounds. About 1,600 (0.73%) were called active. Shown is part of a subset that was picked to be rich in actives.
Numbers only; they are read as %.

In the examples that follow, each entry is paired with its recorded inhibition.
COMPOUND	MEASURED
CCCCCCc1cc2cc(-c3nnc(-c4ccccc4)o3)c(=O)oc2cc1O	80.9
COc1ccc2oc(=O)c(C(=O)O)cc2c1	1.6

### Prompt Value lookup for inhibition; key = N#CC1=C(N)Oc2cc(O)ccc2C1C1CCCCC1 (stereo unspecified)
### Response 120

### Prompt Value lookup for inhibition; key = COc1ccc(C2CC(c3cccs3)=NN2c2ccccc2)cc1 (stereo unspecified)
### Response 91

### Prompt Value lookup for inhibition; key = O=C1c2ccccc2S(=O)(=O)N1CC(O)Cn1c2ccccc2c2ccccc21 (stereo unspecified)
### Response 4.1

### Prompt Value lookup for inhibition; key = CCC1=C(C(=O)OC)C(c2cc(OC)ccc2OC)C(C#N)=C(N)O1 (stereo unspecified)
### Response -8.1

### Prompt Value lookup for inhibition; key = Cc1c(CCC(=O)O)c(=O)oc2cc3occ(-c4ccccc4)c3cc12
### Response -3.4

### Prompt Value lookup for inhibition; key = CS(=O)(=O)N(CC(O)Cn1c2ccccc2c2ccccc21)c1cccc2ccccc12 (stereo unspecified)
### Response 1.2

### Prompt Value lookup for inhibition; key = CN(C)CCCn1c(N)c(C#N)c2nc(C#N)c(C#N)nc21
### Response 78.7

### Prompt Value lookup for inhibition; key = c1ccc(-c2cc3c(NCC4COc5ccccc5O4)ncnc3s2)cc1 (stereo unspecified)
### Response 8.3

### Prompt Value lookup for inhibition; key = COc1ccc(-c2nn(C)c(=O)c3ccccc23)cc1CNC(=O)C1CCCCC1
### Response -3.9

### Prompt Value lookup for inhibition; key = C=CCN(CC=C)C(=O)COC(=O)c1n[nH]c2ccccc12
### Response -3

### Prompt Value lookup for inhibition; key = CCCC(=O)Nc1nnc(-c2ccccc2)o1
### Response 0.5

### Prompt Value lookup for inhibition; key = Cc1cc(=O)[nH]c(N/N=C/c2ccc3c(c2)OCCO3)n1
### Response -9.8

### Prompt Value lookup for inhibition; key = COc1cccc(C(=O)c2cc3ccc(O)cc3oc2=O)c1
### Response 165

### Prompt Value lookup for inhibition; key = N#Cc1c(C(F)(F)F)cc(-c2ccccc2)nc1SCC(=O)N1CCOCC1
### Response -9.3

### Prompt Value lookup for inhibition; key = COc1ccc(C2C(C#N)=C(N)Oc3cc(N)ccc32)cc1OC (stereo unspecified)
### Response 102
